system: US3-6-EGFP-HCMV-AD169 viruses; experiment: Fluorescence decay assay against human cytomegalovirus; assay type: cell-based, human cytomegalovirus (HCMV); conditions: Human betaherpesvirus 5, AD169, MRC5, 240 h
Entries and their measured pEC50 follow.
Please report pEC50 as the negative decimal logarithm of the molar concentration, giving only the number.

The examples below pair each entry with its known result.
Molecule | Test System | pEC50
COc1cccc(N2CCN(C3=Nc4cscc4[C@H](CC(=O)O)N3c3cc(C(F)(F)F)ccc3OC)C[C@H]2C)c1 (single isomer, unassigned) [WX-204] | US3-6-EGFP-HCMV-AD169 viruses | 9.76
COc1ccc(C(F)(F)F)cc1N1C(N2CCN(c3ccc(F)cc3)CC2)=Nc2c(csc2F)[C@H]1CC(=O)O (single isomer, unassigned) [WX-113] | US3-6-EGFP-HCMV-AD169 viruses | 6.97

Shifting focus to the molecule that follows.
(Q) For the molecule COc1cc(N2CCN(C3=Nc4ccsc4[C@@H](CC(=O)O)N3c3cc(C(F)(F)F)ccc3OC)CC2)ccn1 (single isomer, unassigned) [WX-108] , report pEC50.
(A) 6.47

----------
System: US3-6-EGFP-HCMV-AD169 viruses
Experiment: Fluorescence decay assay against human cytomegalovirus
Format: cell-based, human cytomegalovirus (HCMV)
Details: Human betaherpesvirus 5, AD169, MRC5, 240 h
Protocol: Fluorescence Decay Assay Against Human Cytomegalovirus The antiviral activity of the compound against human cytomegalovirus (HCMV) was evaluated by determining the half maximal effective concentration (EC50) of the compound. […] The inhibitory activity of the compound on HCMV GFP expression was evaluated by determining the fluorescence intensity in the wells of different concentrations of the compound using a high content cell analysis platform Acumen eX3. Fluorescence Decay Assay Against HCMV […]
Entries and their measured EC50 follow.
Your answer is read as nM, so omit the unit and give the number.

The examples below pair each entry with its known result.
Molecule | Quantity Name | Unit Annotation | Endpoint Result
COc1cc(N2CCN(C3=Nc4c(C)csc4[C@H](CC(=O)O)N3c3cc(C(F)(F)F)ccc3OC)C[C@H]2C)ccn1 (single isomer, unassigned) | EC50 | nM | 0.26
COc1ccnc(N2CCN(C3=Nc4c(csc4F)[C@H](CC(=O)O)N3c3cc(C(F)(F)F)ccc3OC)C[C@H]2C)n1 (single isomer, unassigned) | EC50 | nM | 14
COc1cc(N2CCN(C3=Nc4ccsc4[C@@H](CC(=O)O)N3c3cc(C(F)(F)F)ccc3OC)C[C@H]2C)ccn1 (single isomer, unassigned) | EC50 | nM | 56
COc1cccc(N2CCN(C3=Nc4ccsc4[C@H](CC(=O)O)N3c3cc(C(F)(F)F)ccc3OC)C[C@H]2C)c1 (single isomer, unassigned) | EC50 | nM | 0.17
COc1cccc(N2CCN(C3=Nc4c(csc4F)[C@@H](CC(=O)O)N3c3cc(C(F)(F)F)ccc3OC)CC2)c1 (single isomer, unassigned) | EC50 | nM | 295

(Q) For the molecule COc1cc(N2CCN(C3=Nc4ccsc4[C@H](CC(=O)O)N3c3cc(C(F)(F)F)ccc3OC)C[C@H]2C)ccn1 (single isomer, unassigned) , report EC50.
(A) 0.2

(Q) For the molecule COc1cc(N2CCN(C3=Nc4c(csc4F)[C@@H](CC(=O)O)N3c3cc(C(F)(F)F)ccc3OC)C[C@H]2C)ncn1 (single isomer, unassigned) , report EC50.
(A) 20
